Biological target: hGLP-1R (Homo sapiens, UniProt P43220)
Sequence (P43220 24-463): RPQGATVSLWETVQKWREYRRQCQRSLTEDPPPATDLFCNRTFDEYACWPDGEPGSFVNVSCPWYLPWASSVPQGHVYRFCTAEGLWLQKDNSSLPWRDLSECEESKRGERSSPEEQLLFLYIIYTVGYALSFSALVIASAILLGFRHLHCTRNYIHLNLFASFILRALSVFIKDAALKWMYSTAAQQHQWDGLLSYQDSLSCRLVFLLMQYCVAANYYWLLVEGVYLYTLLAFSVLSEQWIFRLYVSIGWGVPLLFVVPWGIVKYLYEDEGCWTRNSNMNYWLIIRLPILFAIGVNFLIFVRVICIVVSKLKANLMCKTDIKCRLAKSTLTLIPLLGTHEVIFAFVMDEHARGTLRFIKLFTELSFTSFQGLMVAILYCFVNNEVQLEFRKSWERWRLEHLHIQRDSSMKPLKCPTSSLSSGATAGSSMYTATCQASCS
Experiment: cell-based or functional assay
Starred links: 1 amine or outer side, 2 acyl side, 3 side chain; linkers in the order of their positions; H or OH if unused. Non-standard residues stand in square brackets, D forms with d. Groups on a side chain read outwards from the residue. No end group written: not given here. *: point of attachment. C20 diacid = O=C(O)CCCCCCCCCCCCCCCCCCC(=O)*; C18 diacid = O=C(O)CCCCCCCCCCCCCCCCC(=O)*; γGlu = O=C(O)[C@H](CCC(=O)[*:2])N[*:1]; NMeY = CN[C@@H](Cc1ccc(O)cc1)C(=O)O; αMeF = C[C@](N)(Cc1ccccc1)C(=O)O; αMeL = CC(C)C[C@](C)(N)C(=O)O; Dap = NC[C@H](N)C(=O)O; AEEA = NCCOCCOCC(=O)O; Aib = CC(C)(N)C(=O)O
Doc: threshold 1 nM (exclusive). Items with Relative cAMP EC50 beneath it return 1; others return 0.

Before answering, review these 5 worked examples.
YXQGTXTSDXXIXLDXKAQXXFIEXLAEGGPSSGEPPPSGTGE (synthetic construct; SITE 2: note = 2-Aminoisobutyric Acid; SITE 6: note = alpha-methyl-2-fluoro-L-phenylalanine; SITE 10: note = 3-(4-Pyridyl)-L-alanine; SITE 11: note = alpha-methyl-L-serine; SITE 13: note = alpha-methyl-leucine; SITE 16: note = L-ornithine; SITE 17: note = Lysine is chemically mo) [Example 545] :: 1
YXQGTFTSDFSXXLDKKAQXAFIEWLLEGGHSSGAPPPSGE (synthetic construct; SITE 2: note = 2-Aminoisobutyric Acid; SITE 12: note = L-ornithine; SITE 13: note = alpha-methyl-leucine; SITE 17: note = Lysine is chemically modified through conjugation of the epsilon-amino group of the Lysine side chain with (2-[2-(2-Amino-ethoxy)-ethoxy]-acetyl)-(gamma-Glu)) [Example 122] :: 0
YXQGTFTSDXSXXLDKKAQXAFIEXLLEGGPSSGAPPPSGS (synthetic construct; SITE 2: note = 2-Aminoisobutyric Acid; SITE 10: note = 3-(4-Pyridyl)-L-alanine; SITE 12: note = L-ornithine; SITE 13: note = alpha-methyl-leucine; SITE 17: note = Lysine is chemically modified through conjugation of the epsilon-amino group of the Lysine side chain with (gamma-Gl)) [Example 942] :: 0
YXQGTFTSDXSKXLDKKAQXAFIEYLIEXGPSSGAPPPSGSEEE (synthetic construct; SITE 2: note = 2-Aminoisobutyric Acid; SITE 10: note = 3-(4-Pyridyl)-L-alanine; SITE 13: note = alpha-methyl-leucine; SITE 17: note = Lysine is chemically modified through conjugation of the epsilon-amino group of the Lysine side chain with (2-[2-(2-Amino-ethoxy)-ethoxy]-acetyl)) [Example 903] :: 0
YXQGTXTSDXXIXLDXKAQXXFIEXLIEGGPSSGAPEPSEG (synthetic construct; SITE 2: note = 2-Aminoisobutyric Acid; SITE 6: note = alpha-methyl-2-fluoro-L-phenylalanine; SITE 10: note = 3-(4-Pyridyl)-L-alanine; SITE 11: note = alpha-methyl-L-serine; SITE 13: note = alpha-methyl-leucine; SITE 16: note = L-ornithine; SITE 17: note = Lysine is chemically mo) [Example 429] :: 1

**Query** Dear reviewer, please state whether [NMeY][Aib]QGT[αMeF]TSDYSSLLDKIAAK([AEEA-AEEA-γGlu-C20 diacid])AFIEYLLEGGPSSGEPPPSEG-NH2 [Example 297] has Relative cAMP EC50 strictly beneath 1 nM.
**Result** 0

**Query** Dear reviewer, please state whether YXQGTXTSDXSILLDKKAQXAFIEYLXEGGPSSGAPPPSGTGE (synthetic construct; SITE 2: note = 2-Aminoisobutyric Acid; SITE 6: note = alpha-methyl-2-fluoro-L-phenylalanine; SITE 10: note = 3-(4-Pyridyl)-L-alanine; SITE 17: note = Lysine is chemically modified through conjugation of the epsilon-amino group of the Lysine side chain with (2-[2-(2-Amino-ethoxy))) [Example 663 (SEQ ID NO: 669)] has Relative cAMP EC50 strictly beneath 1 nM.
**Result** 0

**Query** Dear reviewer, please state whether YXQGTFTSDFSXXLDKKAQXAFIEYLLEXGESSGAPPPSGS (Aib, Orn, αMeL; γGlu-AEEA-γGlu-C18 diacid on Lys; C-terminal amide; synthetic construct; SITE 2: note = 2-Aminoisobutyric Acid; SITE 12: note = L-ornithine; SITE 13: note = alpha-methyl-leucine; SITE 17: note = Lysine is chemically modified through conjugation of the epsilon-amino group of the Lysine side chain with (gamma-Glu)-(2-[2-(2-Amino-ethoxy)-ethoxy]-acetyl)) [Example 244] has Relative cAMP EC50 strictly beneath 1 nM.
**Result** 0

**Query** Dear reviewer, please state whether Y[Aib]QGTFTSDFS[Dap][αMeL]LDKK([AEEA-γGlu-C18 diacid])AQ[Aib]AFIEYLLE[Aib]GPSSGAPPPSGS-NH2 [Example 134] has Relative cAMP EC50 strictly beneath 1 nM.
**Result** 0

**Query** Dear reviewer, please state whether YXQGTXTSDXXIXLDXQAQXEFIEXLIEGGPSSGAPPPSGSE (not fully specified; synthetic construct; SITE 2: note = 2-Aminoisobutyric Acid; SITE 6: note = alpha-methyl-2-fluoro-L-phenylalanine; SITE 10: note = 3-(4-Pyridyl)-L-alanine; SITE 11: note = alpha-methyl-L-serine; SITE 13: note = alpha-methyl-leucine; SITE 16: note = L-ornithine; SITE 20: note = 3-(4-Pyridyl)-L-alanine) [Example 1233] has Relative cAMP EC50 strictly beneath 1 nM.
**Result** 0

**Query** Dear reviewer, please state whether YXQGTFTSDXSQXLDKKAQXAFIEYLLEAGPSSGAPPPSGT (synthetic construct; SITE 2: note = 2-Aminoisobutyric Acid; SITE 10: note = 3-(4-Pyridyl)-L-alanine; SITE 13: note = alpha-methyl-leucine; SITE 17: note = Lysine is chemically modified through conjugation of the epsilon-amino group of the Lysine side chain with (2-[2-(2-Amino-ethoxy)-ethoxy]-acetyl)) [Example 823] has Relative cAMP EC50 strictly beneath 1 nM.
**Result** 0

// data source = patent US20240270821A1
